Target: T1, rGyr_hel (reverse gyrase helicase-like domain) (Thermotoga maritima, UniProt O51934 59-541)
T1 sequence: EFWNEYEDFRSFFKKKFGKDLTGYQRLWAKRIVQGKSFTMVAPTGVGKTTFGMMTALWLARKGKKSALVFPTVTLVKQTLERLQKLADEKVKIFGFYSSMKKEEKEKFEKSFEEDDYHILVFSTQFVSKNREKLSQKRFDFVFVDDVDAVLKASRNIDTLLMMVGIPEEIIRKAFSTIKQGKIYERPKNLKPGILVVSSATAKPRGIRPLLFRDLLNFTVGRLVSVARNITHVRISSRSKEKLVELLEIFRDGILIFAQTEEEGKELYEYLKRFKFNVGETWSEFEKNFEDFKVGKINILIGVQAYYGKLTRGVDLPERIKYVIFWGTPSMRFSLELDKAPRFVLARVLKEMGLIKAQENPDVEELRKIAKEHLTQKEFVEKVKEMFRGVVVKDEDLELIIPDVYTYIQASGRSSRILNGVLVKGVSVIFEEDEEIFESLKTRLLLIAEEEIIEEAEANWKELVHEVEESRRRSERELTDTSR
Assay: fluorescence anisotropy
parameter.measured: Kd (nM)
One number for each entry, in nM.

# Kd of 60-base ssDNA (ssDNA) DNA: AAGCCAAGCTTCTAGAGTCAGCCCGTGATATTCATTACTTCTTATCCTAGGATCCCCGTT = 600
